- Tested on: M. tuberculosis H37Rv growth inhibition, 7H9 media
- Experiment Notes: M. tuberculosis growth inhibition, HTS (AID 449762);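 note: bacterial growth assessed after seven days of incubation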
- Condition Description: measured here: IC90 growth inhibition
Records with an inconclusive call do not appear.
For each record, check the reported IC90: if it is below 30 µM write true, else write false.

Molecule	Category
CCc1c(C2(O)CCCCC2)[nH]c2ccc(C(F)(F)F)cc12	false
COc1ccc(-c2oc3ccc(-c4ccc(OC)nc4)cc3c2C#CC2(O)CCCCC2)cc1	false
Cc1cc2c(N=O)c(NO)ccc2[nH]1	true
O=C(C[C@@H]1C/C=C\C[C@H](NC(=O)OCC2c3ccccc3-c3ccccc32)C(=O)OC[C@H]2CCCN2C1=O)N[C@@H](CO)Cc1ccccc1	true
CC(C)OC(=O)c1ccc(COC(=O)c2cnccn2)cc1	false
COc1ccc(Cc2nnc(SCC(=O)N(c3ccccc3)C(C)C)n(N)c2=O)cc1	false
COC(=O)C(C)Oc1ccc2c(c1)O/C(=C\c1ccco1)C2=O (stereo not drawn)	true
Fc1ccc2[nH]c3c(NCc4ccccc4)ncnc3c2c1	true
Cc1ccc(-c2ccnc(=S)[nH]2)cc1	false
CCOc1ccc(CN(C)CC(O)COC(c2ccc(OC)cc2)c2ccc(OC)cc2)cc1 (stereo not drawn)	true
O=C1C(=O)N(c2ccccc2)c2ccccc21	true
O=C(Nc1cccc(Cl)c1)N1CCN(C/C=C/c2ccccc2)CC1	false
N#C/C(N=Nc1ccccc1O)=N\Nc1ccccc1O	true

====

- Test system: M. tuberculosis H37Rv growth inhibition, 7H9 media
- Experiment Notes: M. tuberculosis growth inhibition, HTS (AID 449762);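 note: bacterial growth assessed after seven days of incubation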
- Condition Description: measured here: IC90 growth inhibition
Inconclusive results are not listed.
Output schema: class label derived from IC90. Mapping: band 1: < 20 µM; band 2: ≥ 20 µM and < 50 µM; band 3: ≥ 50 µM

Smiles String	Category
CN(CCO)c1cc(Sc2nc3ccccc3s2)c2nonc2c1[N+](=O)[O-]	band 3
Cc1cccc(NC(=O)c2nc[nH]c2C(=O)N[C@H](C)c2ccccc2)c1	band 3
O=C1N[C@@H](Cc2ccccc2)C(=O)N2[C@H]3Nc4ccccc4[C@@]3([C@]34C[C@H]5C(=O)N[C@@H](Cc6ccccc6)C(=O)N5[C@H]3Nc3ccccc34)C[C@@H]12	band 3
CCN(CC)S(=O)(=O)c1ccc2oc(SCC(=O)Nc3cc(C)on3)nc2c1	band 1
Cc1cc2nc(/N=C(\N)NC(=O)C(C)C)nc(C)c2cc1C	band 3
O=C(CSc1nc2ccccc2nc1N1CCOCC1)N1CCN(c2ccccc2)CC1	band 1
COc1ccc(/C=N/Nc2cc(N3CCCC3)nc(N3CCCC3)n2)cc1	band 2
CCOC(=O)c1csc(-c2snnc2C)n1	band 3
CCCCCCc1cc2cc(C(=O)NCc3ccccc3)c(=N)oc2cc1O	band 1
CCOc1ccc(N/C(C)=C/C(=O)c2ccc3c(c2)OCCO3)cc1	band 2
COc1ccc(C(C)=O)cc1COC(=O)c1ccc2ccccc2n1	band 3
CCCCCCC[N+](CC)(CC)CCCCc1ccc(Cl)cc1	band 2
COc1ccccc1/C(C)=N/NC(=S)NCc1ccccc1	band 2
COc1ccc(-c2oc3cccnc3c2/C=C/c2ccc(OC)c(OC)c2)cc1	band 3
COC(=O)CSc1nnc(-c2sc3cc(OC)ccc3c2Cl)n1C	band 3
CN=c1scc(-c2ccccc2Br)n1/N=C/c1ccc[nH]1	band 3
